Target: T1, Cynomolgus monkey cKIT D1-5 (cyno cKIT ECD, C-terminal 6x His) (cynomolgus monkey, UniProt P10721 25-520 (human entry))
T1 construct: The signal peptide is not part of the protein in the assay; The entry includes the C-terminal His tag; also called cynomolgus monkey ECD
T1 chain: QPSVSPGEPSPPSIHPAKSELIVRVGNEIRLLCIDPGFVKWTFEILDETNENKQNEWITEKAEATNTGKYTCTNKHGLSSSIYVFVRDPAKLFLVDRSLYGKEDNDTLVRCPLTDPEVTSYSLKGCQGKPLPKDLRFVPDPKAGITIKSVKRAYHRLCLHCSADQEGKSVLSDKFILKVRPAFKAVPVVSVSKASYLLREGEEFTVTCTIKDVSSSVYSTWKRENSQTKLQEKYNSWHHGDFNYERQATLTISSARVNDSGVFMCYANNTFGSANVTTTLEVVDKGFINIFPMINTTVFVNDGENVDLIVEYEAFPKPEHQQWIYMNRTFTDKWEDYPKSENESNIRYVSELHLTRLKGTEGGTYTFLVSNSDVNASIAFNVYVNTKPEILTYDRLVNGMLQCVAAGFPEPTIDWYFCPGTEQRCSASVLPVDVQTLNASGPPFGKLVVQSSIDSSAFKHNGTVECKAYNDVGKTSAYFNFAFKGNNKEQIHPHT
Test: SPR (Biacore 2000): antibody captured by anti-human Fc on CM5, cKIT ECD in solution, 25 C, 1:1 fit
experimental.readout: pKd
Hey, just a heads up that pKd is the negative log base 10 of the concentration in molar.

binder	quantitative.readout
NEG086 (antibody, human IgG1, kappa, V domains shown, Humanized, optimized variant of 9P3; human IgG1 kappa) VH: EVQLVESGGGLVQPGGSLRLSCAASGFTFSDYYMAWVRQAPGKGLEWVANINQIAGSTYYVDSVQGRFTISRDNAKNSLYLQMNSLRAEDTAVYYCARGDYYGTTYWYFDVWGQGTTVTVSS VL: DIQMTQSPSSLSASVGDRVTITCRASQSISSYLNWYQQKPGKAPKLLIYYTSRLQSGVPSRFSGSGSGTDFTLTISSLQPEDFATYYCQQGRRLWSFGGGTKVEIKR	8.87
NEG087 (antibody, human IgG1, kappa, V domains shown, Humanized, optimized variant of 9P3; human IgG1 kappa) VH: EVQLVESGGGLVQPGGSLRLSCAASGFTFSDYYMAWVRQAPGKGLEWVASINQNTGSTYYLDSVRGRFTISRDNAKNSLYLQMNSLRAEDTAVYYCARGDYYGTTYWYFDVWGQGTTVTVSS VL: DIQMTQSPSSLSASVGDRVTITCRASQSISSYLNWYQQKPGKAPKLLIYYTSRLQSGVPSRFSGSGSGTDFTLTISSLQPEDFATYYCQQGRRLWSFGGGTKVEIKR	8.86

Sample NEG085 (antibody, human IgG1, kappa, V domains shown) VH: EVQLVESGGGLVQPGGSLRLSCAASGFAFSGYYMAWVRQAPGKGLEWVANINYPGSSTYYLDSVKGRFTISRDNAKNSLYLQMNSLRAEDTAVYYCARGDYYGTTYWYFDVWGQGTTVTVSS VL: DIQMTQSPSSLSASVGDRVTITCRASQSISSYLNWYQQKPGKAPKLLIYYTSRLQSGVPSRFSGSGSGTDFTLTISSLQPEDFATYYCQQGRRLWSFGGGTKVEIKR — what was its pKd?
8.21
